Measured on: Anoctamin-1 (Mus musculus) (UniProt Q8BHY3)
Sequence (Q8BHY3 whole entry, looked up): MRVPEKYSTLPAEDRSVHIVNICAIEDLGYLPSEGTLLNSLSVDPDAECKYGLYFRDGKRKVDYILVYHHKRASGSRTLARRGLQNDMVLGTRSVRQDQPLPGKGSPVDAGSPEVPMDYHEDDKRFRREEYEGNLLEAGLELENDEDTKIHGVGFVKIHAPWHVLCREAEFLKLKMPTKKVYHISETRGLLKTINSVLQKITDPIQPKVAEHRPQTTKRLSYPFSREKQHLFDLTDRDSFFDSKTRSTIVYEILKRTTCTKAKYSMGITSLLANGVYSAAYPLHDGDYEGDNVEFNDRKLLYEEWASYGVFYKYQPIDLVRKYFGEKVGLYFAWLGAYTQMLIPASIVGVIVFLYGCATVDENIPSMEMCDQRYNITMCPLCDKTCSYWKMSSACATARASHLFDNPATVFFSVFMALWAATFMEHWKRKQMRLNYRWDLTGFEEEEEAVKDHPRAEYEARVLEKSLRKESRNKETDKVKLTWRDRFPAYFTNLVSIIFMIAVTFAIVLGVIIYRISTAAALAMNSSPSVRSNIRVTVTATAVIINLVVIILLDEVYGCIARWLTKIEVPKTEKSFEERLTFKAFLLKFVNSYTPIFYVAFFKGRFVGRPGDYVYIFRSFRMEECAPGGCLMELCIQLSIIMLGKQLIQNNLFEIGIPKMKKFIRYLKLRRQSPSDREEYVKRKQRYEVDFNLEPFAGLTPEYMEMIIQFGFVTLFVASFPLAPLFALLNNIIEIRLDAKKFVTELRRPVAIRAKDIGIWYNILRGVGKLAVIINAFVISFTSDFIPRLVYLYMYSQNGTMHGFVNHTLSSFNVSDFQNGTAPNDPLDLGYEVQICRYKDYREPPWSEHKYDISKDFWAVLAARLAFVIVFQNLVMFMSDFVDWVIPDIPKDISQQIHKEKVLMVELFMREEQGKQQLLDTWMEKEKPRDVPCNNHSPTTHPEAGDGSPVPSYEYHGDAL
Assay notes: mouse ANO1 channel activation – cell-based, HTS, primary screen (AID 623877)
Measurement conditions: HEK293 TMEM16A/YFP-H148Q/I152L, iodide quench fluorescence, at 10 µM
The campaign covered roughly 340,000 compounds. About 1,000 (0.29%) were called active.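 How the source made its calls: active means fluorescence-ratio B-score plate-corrected deviation score at least 3 library SD below zero, with starting fluorescence score within 5 deviations; inactive means the rest.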 This excerpt belongs to a sample that is enriched for actives.
Labels: active, inactive

>>> assigned_class("COc1ccc(CNC(=O)c2nnn(CC(=O)Nc3cc(C)cc(C)c3)c2N)cc1")
"inactive"
>>> assigned_class("Nc1ccc2[nH]c(=S)sc2c1")
"inactive"
>>> assigned_class("CCOC(=O)c1ccccc1NC(=O)COC(=O)CCC(=O)N1CCOCC1")
"inactive"
>>> assigned_class("COc1ccc(NC(=O)C2C3C=CC(C3)C2C(=O)NCc2ccccn2)c(OC)c1 (stereo unspecified)")
"inactive"
>>> assigned_class("CCOc1ccccc1-n1c(SCC(=O)NCc2ccco2)nnc1-c1ccncc1")
"inactive"
>>> assigned_class("CC(=O)Nc1ccc(C(=O)Nc2cc(S(=O)(=O)N3CCOCC3)ccc2N2CCOCC2)cc1")
"inactive"
>>> assigned_class("CCOCCCNC(=S)N1CCC(NC(=O)C2CCCCC2)CC1")
"inactive"
>>> assigned_class("CN(C)S(=O)(=O)c1ccc(N2CCCC2)c(C(=O)NCc2ccccc2)c1")
"inactive"
>>> assigned_class("OCC(O)C1OCOC(C(O)CO)C1O (stereo unspecified)")
"inactive"
>>> assigned_class("COc1ccc(-n2c(SCC(=O)NCc3cccs3)nnc2-c2ccoc2C)cc1")
"inactive"
>>> assigned_class("Cc1ccccc1-n1c(SCC(=O)NCc2cccs2)nnc1-c1ccncc1")
"active"
